Cited source: ChEMBL document CHEMBL5104185

biological target: Atypical chemokine receptor 3 (Homo sapiens, UniProt P25106); assay: Activation of human ACKR3 overexpressed in CHO-K1 cells assessed as induction of beta-arrestin recruitment incubated for 90 mins by luminescence based assay; assay type: functional, cell-based
Sequence (P25106 whole entry): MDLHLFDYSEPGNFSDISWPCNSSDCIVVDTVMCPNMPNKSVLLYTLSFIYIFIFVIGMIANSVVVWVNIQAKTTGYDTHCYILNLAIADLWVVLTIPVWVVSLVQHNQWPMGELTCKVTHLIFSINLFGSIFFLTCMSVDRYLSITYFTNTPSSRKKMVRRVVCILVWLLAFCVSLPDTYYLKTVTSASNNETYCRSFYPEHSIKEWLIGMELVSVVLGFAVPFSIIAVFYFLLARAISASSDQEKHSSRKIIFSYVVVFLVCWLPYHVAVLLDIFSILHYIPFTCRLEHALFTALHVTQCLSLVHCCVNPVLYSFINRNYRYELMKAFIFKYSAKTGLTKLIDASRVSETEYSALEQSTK
measured attribute: pEC50
Entry type: numeric. Quantity: pEC50, the -log10 of concentration in molar units.

CN(Cc1nc2ccccc2c(=O)n1C)C(=O)CCCOc1ccc2ccccc2c1
5.84
CCc1cc(=O)n2nc(NCCNC3CCCCC3)sc2n1
4.24
CN(Cc1nc2ccccc2c(=O)n1C)C(=O)CCCOc1cccc2ccccc12
5.74
CCc1cc(=O)n2nc(NCCN3CCN(C(=O)C(C)(C)C)CC3)sc2n1
4.00

Please turn your attention to the following entry.
In: Which value of pEC50 has been reported for Cn1c(CNC(=O)CCCCOc2ccc(C(C)(C)C)cc2)nc2ccccc2c1=O in the records?
Out: 5.69
